Biological target: Voltage-gated calcium channel
measured.attribute: pIC50
When answering, recall that pIC50 equals minus log10 of the concentration in mol/L, and write that number alone.

>>> print(df.to_string())
                           substance_smiles  measured_attribute  recorded_value
0  Cc1nc2nc3c(c(N)c2c(-c2ccccc2)c1C(=O)OC(C)C)CCCC3               pIC50            5.00

Data point: CCOC(=O)c1c(C)nc2nc3c(c(N)c2c1-c1ccccc1OC)CCCCC3 ; pIC50 = 4.77

Data point: CCOC(=O)c1c(C)nc2nc3c(c(N)c2c1-c1ccc(Cl)cc1)CCCC3 ; pIC50 = 4.47

Data point: CCOC(=O)c1c(C)nc2nc3c(c(N)c2c1-c1ccc(Cl)cc1)CCCCC3 ; pIC50 = 4.57

Data point: CCOC(=O)c1c(C)nc2nc3c(c(N)c2c1-c1ccccc1)CCCCCC3 ; pIC50 = 5.00

Data point: CCOC(=O)c1c(C)nc2nc3c(c(N)c2c1-c1ccc(OC)c(OC)c1)CCCC3 ; pIC50 = 4.59

Data point: CCOC(=O)c1c(C)nc2nc3c(c(N)c2c1-c1cccc(OC)c1)CCCCC3 ; pIC50 = 5.05

Data point: CCOC(=O)c1c(C)nc2nc3c(c(N)c2c1-c1ccc(F)cc1)CCCC3 ; pIC50 = 4.42

Data point: CCOC(=O)c1c(C)nc2nc3c(c(N)c2c1-c1ccc([N+](=O)[O-])cc1)CCCCC3 ; pIC50 = 4.89

Data point: CCOC(=O)c1c(C)nc2nc3c(c(N)c2c1-c1ccccc1)CCCC3 ; pIC50 = 4.70
